biological target: HRV3C (Human rhinovirus 14, UniProt P03303); construct: SARS-Cov-2 3CLpro and HRV3C Duplex Assay; test: biochemical; settings: HRV3C, duplex assay, 30 mins preincubation; class symbols; read-out: HRV IC50
Sequence (P03303 1538-1719): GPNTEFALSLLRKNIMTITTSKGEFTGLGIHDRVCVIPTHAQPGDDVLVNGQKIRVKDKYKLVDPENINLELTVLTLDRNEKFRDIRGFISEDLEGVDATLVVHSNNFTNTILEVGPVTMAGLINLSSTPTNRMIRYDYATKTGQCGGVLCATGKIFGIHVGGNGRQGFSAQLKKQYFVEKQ
pIC50: −log10 of the molar value.
Value kind: pIC50

Tested on HRV3C (Human rhinovirus 14, UniProt P03303): O=C(NC1CC1)C(=O)[C@H](C[C@@H]1CCNC1=O)NC(=O)[C@@H]1CC2(CCN1C(=O)c1cccc(-c3ccccc3)n1)CC2 . Observed pIC50: 5.70 to 6.70

Value sought: pIC50, system HRV3C (Human rhinovirus 14, UniProt P03303), item O=C(NC1CC1)C(=O)C(C[C@@H]1CCNC1=O)NC(=O)[C@@H]1CC2(CCN1C(=O)c1cc3cccc4c3n1CCC4)CC2 (stereo partly drawn) . Result: 5.70 to 6.70

Summary line: O=C(NC1CC1)C(=O)C(C[C@@H]1CCNC1=O)NC(=O)[C@@H]1CC2(CCN1C(=O)c1noc(-c3ccccc3)n1)CC2 (stereo partly drawn) , HRV3C (Human rhinovirus 14, UniProt P03303), reported pIC50 = 5.70 to 6.70

----------
target: human cathepsin L (Homo sapiens)
pIC50: −log10 of the molar value.
Value kind: pIC50

O=C(NC1CC1)C(=O)C(C[C@@H]1CCNC1=O)NC(=O)[C@@H]1CC2(CCN1C(=O)c1cc3cccc(Cl)c3s1)CC2 (stereo partly shown) :: 5.00 to 6.00
O=C(NC1CC1)C(=O)[C@H](C[C@@H]1CCNC1=O)NC(=O)[C@@H]1CC2(CCN1C(=O)c1cc3ccccn3n1)CC2 :: ≤ 5.00
O=C(NC1CC1)C(=O)[C@H](C[C@@H]1CCNC1=O)NC(=O)[C@@H]1CC2(CCN1C(=O)c1cccc(-c3ccccc3)n1)CC2 :: ≤ 5.00
O=C(NC1CC1)C(=O)[C@H](C[C@@H]1CCNC1=O)NC(=O)[C@@H]1CC2(CCN1C(=O)[C@@H]1C[C@H]1c1ccccc1)CC2 :: 5.00 to 6.00
O=C(NC1CC1)C(=O)[C@H](C[C@@H]1CCNC1=O)NC(=O)[C@@H]1CC2(CCN1C(=O)c1csc3ccccc13)CC2 :: ≤ 5.00

Consider the record given below.
Form field pIC50, entry Cn1c(C(=O)N2CCC3(CC3)C[C@H]2C(=O)N[C@@H](C[C@@H]2CCNC2=O)C(=O)C(=O)NC2CC2)cc2ccc(Cl)cc21 : ≤ 5.00

----------
Parameter: IC50. Scope: all listed entries.
target: human cathepsin L (Homo sapiens, UniProt P07711)
Sequence (P07711 114-333): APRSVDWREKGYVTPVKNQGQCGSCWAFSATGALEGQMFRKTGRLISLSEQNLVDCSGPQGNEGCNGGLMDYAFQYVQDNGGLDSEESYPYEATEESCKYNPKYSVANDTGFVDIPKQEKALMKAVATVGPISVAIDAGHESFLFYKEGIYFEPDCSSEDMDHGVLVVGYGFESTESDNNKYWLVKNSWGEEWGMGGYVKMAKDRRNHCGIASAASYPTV

Some solved entries appear below for comparison.
O=C(NC1CC1)C(=O)[C@H](C[C@@H]1CCNC1=O)NC(=O)[C@@H]1CC2(CCN1C(=O)[C@H]1CCCc3ccccc31)CC2 :: ≥ 10 µM
N#C[C@H](C[C@@H]1CCNC1=O)NC(=O)[C@@H]1CC2(CCN1C(=O)c1ncc(-c3ccccc3)s1)CC2 :: ≥ 10 µM

Form field IC50, entry O=C(NC1CC1)C(=O)[C@H](C[C@@H]1CCNC1=O)NC(=O)[C@@H]1CC2(CCN1C(=O)c1csc(-c3ccccc3)n1)CC2 : ≥ 10 µM

What the record says about O=C(NC1CC1)C(=O)[C@H](C[C@@H]1CCNC1=O)NC(=O)[C@@H]1CC2(CCN1C(=O)c1cn3ccccc3n1)CC2 : IC50 is ≥ 10 µM

For O=C(NC1CC1)C(=O)[C@H](C[C@@H]1CCNC1=O)NC(=O)[C@@H]1CC2(CCN1C(=O)[C@H]1C[C@@]13CCCc1ccccc13)CC2 (relative stereo) [Compound 34A] the compound record lists IC50 as 1 to 10 µM

IC50 measured on O=C(NC1CC1)C(=O)[C@H](C[C@@H]1CCNC1=O)NC(=O)[C@@H]1CC2(CCN1C(=O)[C@@H]1CCCc3ccccc31)CC2 = ≥ 10 µM
